- Experimental target: interaction between the AnxA2 N-terminus and S100A10 (Homo sapiens)
- Experiment notes: Fluorescence screening assay (FRET competitive binding, Cy3-AnxA2(Ac1–14) peptide / Cy5-S100A10)
- Stated conditions: Table 3; FRET assay, 12 observations
Measurement label: pIC50 ± SE

Worked set:
* Cc1ccc(NC(=O)CCSc2nnc(C)n2Cc2ccco2)cc1C | 2.95
* C=CCn1c(C)nnc1SCC(=O)Nc1ccc(C(C)C)cc1 | 3.86
* COCCCn1c(C)nnc1SCC(=O)Nc1ccc(C(C)C)cc1 | 3.79

I = Cc1nnc(SCC(=O)Nc2ccc(C(C)C)cc2)n1Cc1ccco1
II = Cc1ccc(NC(=O)CSc2nnc(C)n2Cc2ccco2)cc1C
-- ask Between these two entries, I and II , state which has the higher pIC50 ± SE. The response must carry the label of the picked entry.
-- reply I
(I: 4.40, II: 2.32)

----------
- Experimental target: interaction between the AnxA2 N-terminus and S100A10 (Homo sapiens)
- Experiment notes: Fluorescence screening assay (FRET competitive binding, Cy3-AnxA2(Ac1–14) peptide / Cy5-S100A10)
- Stated conditions: Table 2; FRET assay, 12 observations; read-out: IC50
Measurement label: IC50 (µM)

Worked set:
• Cc1cc(C)nc(SCc2nnc(SCC(=O)Nc3ccc(C)c(C)c3)n2-c2ccc(Cl)cc2)n1 [Compound 44] = 59
• C=CCn1c(CSc2nc(C)cc(C)n2)nnc1SCC(=O)Nc1ccc(C(C)C)cc1 [Compound 46] = 10
• Cc1cc(C)nc(SCc2nnc(SCC(=O)Nc3ccc(C(C)C)cc3)n2-c2ccc(Cl)cc2)n1 [Compound 49] = 27
• C=CCn1c(CSc2nc(C)cc(C)n2)nnc1SCC(=O)Nc1ccc(C(F)(F)F)cc1 [Compound 50] = 8
• COCCCn1c(CSc2nc(C)cc(C)n2)nnc1SCC(=O)Nc1ccc(C(F)(F)F)cc1 [Compound 51] = 10

I = Cc1cc(C)nc(SCc2nnc(SCCC(=O)Nc3ccc(C)c(C)c3)n2Cc2ccco2)n1 [Compound 45]
II = COCCCn1c(CSc2nc(C)cc(C)n2)nnc1SCC(=O)Nc1ccc(C(C)C)cc1 [Compound 47]
-- ask // pick min by IC50: I , II The response must carry the label of the picked entry.
-- reply II
(II: 7 µM, I: 24 µM)

----------
- Experimental target: interaction between the AnxA2 N-terminus and S100A10 (Homo sapiens, UniProt P60903)
- Sequence (P60903 whole entry, species assumed): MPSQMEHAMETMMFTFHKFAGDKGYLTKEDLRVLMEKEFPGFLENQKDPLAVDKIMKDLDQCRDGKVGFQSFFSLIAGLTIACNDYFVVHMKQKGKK
- Experiment notes: Fluorescence screening assay (FRET competitive binding, Cy3-AnxA2(Ac1–14) peptide / Cy5-S100A10)
- Stated conditions: Table 2; FRET assay, 12 observations
Measurement label: pIC50 ± SE

• COCCCn1c(CSc2nc(C)cc(C)n2)nnc1SCC(=O)Nc1ccc(C(F)(F)F)cc1 = 5.02
• Cc1cc(C)nc(SCc2nnc(SCC(=O)Nc3ccc(C(C)C)cc3)n2-c2ccc(Cl)cc2)n1 = 4.58
• C=CCn1c(CSc2nc(C)cc(C)n2)nnc1SCC(=O)Nc1ccc(C(C)C)cc1 = 5.01
• COc1ccc(-n2c(CSc3nc(C)cc(C)n3)nnc2SCC(=O)Nc2ccc(C(F)(F)F)cc2)cc1 = 5.35
• Cc1cc(C)nc(SCc2nnc(SCC(=O)Nc3ccc(C(F)(F)F)cc3)n2-c2ccc(Cl)cc2)n1 = 5.07
• COc1ccc(-n2c(CSc3nc(C)cc(C)n3)nnc2SCC(=O)Nc2cc(C(F)(F)F)cc(C(F)(F)F)c2)cc1 = 5.14
• C=CCn1c(CSc2nc(C)cc(C)n2)nnc1SCC(=O)Nc1ccc(C(F)(F)F)cc1 = 5.08
• COc1ccc(NC(=O)CSc2nnc(CSc3nc(C)cc(C)n3)n2-c2ccc(OC)cc2)cc1 = 3.81

----------
- Experimental target: interaction between the AnxA2 N-terminus and S100A10 (Homo sapiens, UniProt P60903)
- Experiment notes: Fluorescence screening assay (FRET competitive binding, Cy3-AnxA2(Ac1–14) peptide / Cy5-S100A10)
- Stated conditions: Table 3; FRET assay, 12 observations; read-out: IC50
pIC50: −log10 of the molar value.
Measurement label: pIC50

- COCCCn1c(C)nnc1SCC(=O)Nc1ccc(C(C)C)cc1 [Compound 66]: 3.79

P = C=CCn1c(C)nnc1SCC(=O)Nc1ccc(C(C)C)cc1 [Compound 65]
Q = Cc1nnc(SCC(=O)Nc2ccc(C(C)C)cc2)n1Cc1ccco1 [Compound 64]
-- ask // pick min by pIC50: P , Q The response must carry the label of the picked entry.
-- reply P
(P: 3.86, Q: 4.40)

----------
- Experimental target: interaction between the AnxA2 N-terminus and S100A10 (Homo sapiens)
- Experiment notes: Fluorescence screening assay (FRET competitive binding, Cy3-AnxA2(Ac1–14) peptide / Cy5-S100A10)
- Stated conditions: Table 1; FRET assay, 12 observations; read-out: IC50
pIC50: −log10 of the molar value.
Measurement label: pIC50

Worked set:
* Cc1cc(C)nc(SCc2nnc(SCC(=O)Nc3cc(C(F)(F)F)cc(C(F)(F)F)c3)n2Cc2ccco2)n1 | 5.05
* Cc1cc(C)nc(SCc2nnc(SCC(=O)Nc3ccc(Cl)cc3)n2Cc2ccco2)n1 | 4.77

a = CCCCn1c(SCC(=O)Nc2cccc(C)n2)nnc1-c1ccco1
b = Cc1cc(C)nc(SCc2nnc(SCC(=O)Nc3ccc(Br)cc3)n2Cc2ccco2)n1
-- ask // pick min by pIC50: a , b The response must carry the label of the picked entry.
-- reply a
(a: 3.99, b: 5.15)

----------
- Experimental target: interaction between the AnxA2 N-terminus and S100A10 (Homo sapiens)
- Experiment notes: Fluorescence screening assay (FRET competitive binding, Cy3-AnxA2(Ac1–14) peptide / Cy5-S100A10)
- Stated conditions: Table 2; FRET assay, 12 observations
Measurement label: pIC50 ± SE

* Cc1cc(C)nc(SCc2nnc(SCCC(=O)Nc3ccc(C)c(C)c3)n2Cc2ccco2)n1 [Compound 45] | 4.62
* COc1ccc(-n2c(CSc3nc(C)cc(C)n3)nnc2SCC(=O)Nc2ccc(C(C)C)cc2)cc1 [Compound 48] | 4.82
* COCCCn1c(CSc2nc(C)cc(C)n2)nnc1SCC(=O)Nc1ccc(C)c(C)c1 [Compound 42] | 4.49
* COc1ccc(-n2c(CSc3nc(C)cc(C)n3)nnc2SCC(=O)Nc2ccc(Cl)cc2)cc1 [Compound 55] | 4.65
* C=CCn1c(CSc2nc(C)cc(C)n2)nnc1SCC(=O)Nc1ccc(C)c(C)c1 [Compound 41] | 4.56
* Cc1cc(C)nc(SCc2nnc(SCC(=O)Nc3ccc(C)c(C)c3)n2-c2ccc(Cl)cc2)n1 [Compound 44] | 4.23
* COCCCn1c(CSc2nc(C)cc(C)n2)nnc1SCC(=O)Nc1ccc(C(C)C)cc1 [Compound 47] | 5.13
* COc1ccc(-n2c(CSc3nc(C)cc(C)n3)nnc2SCC(=O)Nc2ccc(C)c(C)c2)cc1 [Compound 43] | 4.29

----------
- Experimental target: interaction between the AnxA2 N-terminus and S100A10 (Homo sapiens, UniProt P60903)
- Experiment notes: Fluorescence screening assay (FRET competitive binding, Cy3-AnxA2(Ac1–14) peptide / Cy5-S100A10)
- Stated conditions: Table 2; FRET assay, 12 observations; read-out: IC50
Measurement label: IC50 (µM)

a = COc1ccc(-n2c(CSc3nc(C)cc(C)n3)nnc2SCC(=O)Nc2ccc(C(C)C)cc2)cc1
b = COc1ccc(-n2c(CSc3nc(C)cc(C)n3)nnc2SCC(=O)Nc2ccc(C(F)(F)F)cc2)cc1
-- ask // pick min by IC50: a , b The response must carry the label of the picked entry.
-- reply b

P = COc1ccc(-n2c(CSc3nc(C)cc(C)n3)nnc2SCC(=O)Nc2ccc(Cl)cc2)cc1
Q = COCCCn1c(CSc2nc(C)cc(C)n2)nnc1SCC(=O)Nc1ccc(C)c(C)c1
-- ask // pick min by IC50: P , Q The response must carry the label of the picked entry.
-- reply P
(P: 22 µM, Q: 32 µM)

----------
- Experimental target: interaction between the AnxA2 N-terminus and S100A10 (Homo sapiens)
- Experiment notes: Fluorescence screening assay (FRET competitive binding, Cy3-AnxA2(Ac1–14) peptide / Cy5-S100A10)
- Stated conditions: Table 1; FRET assay, 12 observations
Measurement label: pIC50 ± SE

- Cc1cc(C)nc(SCc2nnc(SCC(=O)Nc3nccs3)n2Cc2ccco2)n1: 3.89
- Cc1cc(C)nc(SCc2nnc(SCC(N)=O)n2Cc2ccco2)n1: 3.75
- Cc1cc(C)nc(SCc2nnc(SCC(=O)Nc3cc(C)on3)n2Cc2ccco2)n1: 4.37
- Cc1cc(C)nc(SCc2nnc(SCC(=O)Nc3ccc(C(C)C)cc3)n2Cc2ccco2)n1: 5.35
- Cc1cc(C)nc(SCc2nnc(SCC(=O)Nc3ccc(Cl)cc3)n2Cc2ccco2)n1: 4.76
- Cc1cccc(NC(=O)CSc2nnc(CSc3nc(C)cc(C)n3)n2Cc2ccco2)c1: 4.89
- Cc1cc(C)nc(SCc2nnc(SCC(=O)Nc3ccc(C)c(C)c3)n2Cc2ccco2)n1: 5.02
- Cc1cc(C)nc(SCc2nnc(SCC(=O)Nc3cc(C(F)(F)F)cc(C(F)(F)F)c3)n2Cc2ccco2)n1: 5.05
- Cc1cc(C)nc(SCc2nnc(SCC(=O)Nc3ccc(C(F)(F)F)cc3)n2Cc2ccco2)n1: 4.55
- Cc1cc(C)nc(SCc2nnc(SCC(=O)Nc3nc(C)cs3)n2Cc2ccco2)n1: 4.53
- Cc1ccc(NC(=O)CSc2nnc(CSc3nc(C)cc(C)n3)n2Cc2ccco2)cc1: 4.96
- Cc1ccc(NC(=O)CSc2nnc(CSc3nc(C)cc(C)n3)n2Cc2ccco2)c(C)c1: 4.83
- Cc1cc(C)nc(SCc2nnc(SCC(=O)Nc3ccccc3)n2Cc2ccco2)n1: 4.63
- Cc1cc(C)nc(SCc2nnc(SCC(=O)Nc3ccc(Br)cc3)n2Cc2ccco2)n1: 5.14
